- Tested on: SNK-6 (IL-2 2.5 ng/mL)
- experimental_protocol: percent inhibition of viability; higher = more inhibition
- experimental_conditions: 72 h; 1000 nM
Item-by-item account of percent inhibition of viability

compound: CC1(C)NC(=O)N(c2ccc([N+](=O)[O-])c(C(F)(F)F)c2)C1=O [Nilutamide] (max concentration tested 10000 nM)
percent inhibition of viability [%]: -22.5
//
compound: Cc1c(N)nc([C@H](CC(N)=O)NC[C@H](N)C(N)=O)nc1C(=O)N[C@H](C(=O)N[C@H](C)[C@@H](O)[C@H](C)C(=O)N[C@H](C(=O)NCCc1nc(-c2nc(C(=O)NCCC[S+](C)C)cs2)cs1)[C@@H](C)O)[C@@H](OC1OC(CO)C(O)C(O)C1OC1OC(CO)C(O)C(OC(N)=O)C1O)c1cnc[nH]1 (some centres undefined) [Bleomycin] (max concentration tested 10000 nM)
percent inhibition of viability [%]: 97
//
compound: CC(C)(C)NC(=O)[C@H]1CC[C@H]2[C@@H]3CC[C@H]4NC(=O)C=C[C@]4(C)[C@H]3CC[C@]12C [Finasteride] (max concentration tested 10000 nM)
percent inhibition of viability [%]: -25.3
//
compound: COc1nc(N)nc2c1ncn2[C@@H]1O[C@H](CO)[C@@H](O)[C@@H]1O [Nelarabine] (max concentration tested 10000 nM)
percent inhibition of viability [%]: -25.6
//
compound: N#CC1(c2ccc(NC(=O)c3cccnc3NCc3ccncc3)cc2)CCCC1 [Apatinib] (max concentration tested 10000 nM)
percent inhibition of viability [%]: 12.6
//
compound: CO[C@@H](C(=O)N1Cc2[nH]nc(NC(=O)c3ccc(N4CCN(C)CC4)cc3)c2C1)c1ccccc1 [Danusertib] (max concentration tested 10000 nM)
percent inhibition of viability [%]: 66.7
//
compound: O=C(CCCCCCNC(=O)c1cnc(N(c2ccccc2)c2ccccc2)nc1)NO [Rocilinostat] (max concentration tested 10000 nM)
percent inhibition of viability [%]: 31.4
//
compound: Clc1ccc(Nc2nnc(Cc3ccncc3)c3ccccc23)cc1 [Vatalanib] (max concentration tested 10000 nM)
percent inhibition of viability [%]: 8.51
//
compound: N#Cc1ccc2[nH]c(O)c(-c3ccc(CN4CCOCC4)cn3)c2c1 [AZD-1080] (max concentration tested 10000 nM)
percent inhibition of viability [%]: -36.2
//
compound: Cn1c(Nc2ccc(C(F)(F)F)cc2)nc2cc(Oc3ccnc(-c4ncc(C(F)(F)F)[nH]4)c3)ccc21 [RAF265] (max concentration tested 1000 nM)
percent inhibition of viability [%]: 44.9
//
compound: C[C@]12C=CC(=O)C=C1CC[C@@H]1[C@@H]2[C@@H](O)C[C@@]2(C)[C@H]1CC[C@]2(O)C(=O)CO [Prednisolone] (max concentration tested 10000 nM)
percent inhibition of viability [%]: 10.2
//
compound: CCn1c(C(=O)N(C2CC2)C2CC2)cc2c3c(ncn3C)c(Nc3cc(C)n(C)n3)nc21 (max concentration tested 10000 nM)
percent inhibition of viability [%]: -16.6
//
compound: CCc1cnn2c(NCc3ccc[n+]([O-])c3)cc(N3CCCC[C@H]3CCO)nc12 [Dinaciclib] (max concentration tested 1000 nM)
percent inhibition of viability [%]: 48.2
//
compound: CCN(CC)CCNC(=O)c1c(C)[nH]c(/C=C2\C(=O)Nc3ccc(F)cc32)c1C [Sunitinib] (max concentration tested 1000 nM)
percent inhibition of viability [%]: -44.5
//
compound: NC(=O)NO [Hydroxyurea] (max concentration tested 100000 nM)
percent inhibition of viability [%]: -13.1
//
compound: CNC(=O)c1ccccc1Sc1ccc2c(/C=C/c3ccccn3)n[nH]c2c1 [Axitinib] (max concentration tested 10000 nM)
percent inhibition of viability [%]: 55.8
//
compound: Nc1nc(Nc2ccc3c(c2)CC[C@@H](N2CCCC2)CC3)nn1-c1cc2c(nn1)-c1ccccc1CCC2 [BGB324] (max concentration tested 10000 nM)
percent inhibition of viability [%]: 34.5
//
compound: O=C1NC(=O)[C@@H](c2cn3c4c(cccc24)CCC3)[C@@H]1c1c[nH]c2ccccc12 [Tivantinib] (max concentration tested 1000 nM)
percent inhibition of viability [%]: 83.3
//
compound: CN(N=O)C(=O)N[C@@H](C=O)[C@@H](O)[C@H](O)[C@H](O)CO [Streptozocin] (max concentration tested 10000 nM)
percent inhibition of viability [%]: 23.4
//
compound: CCCc1cc(C)[nH]c(=O)c1CNC(=O)c1cc(-c2ccnc(N3CCN(C)CC3)c2)cc2c1cnn2C(C)C [GSK343] (max concentration tested 10000 nM)
percent inhibition of viability [%]: -6.91
//
compound: O=P1(NCCCl)OCCCN1CCCl (centres undefined) [Ifosfamide] (max concentration tested 10000 nM)
percent inhibition of viability [%]: -1.13
//
compound: C[C@@H](C(=O)O)c1ccc(-c2ccccc2)c(F)c1 [Tarenflurbil] (max concentration tested 10000 nM)
percent inhibition of viability [%]: -16.9
//
compound: CC(C)[C@H](C(=O)Nc1ccc(C(=O)NO)cc1)c1ccccc1 [AR-42] (max concentration tested 10000 nM)
percent inhibition of viability [%]: 88.3
//
compound: NC1(c2ccc(-c3nc4ccn5c(=O)[nH]nc5c4cc3-c3ccccc3)cc2)CCC1 [MK-2206] (max concentration tested 1000 nM)
percent inhibition of viability [%]: 24.3

* * *

- Test system: normal NK cells expanded with K562-aAPC
- experimental_protocol: percent inhibition of viability; higher = more inhibition
- experimental_conditions: 72 h; IL-2 2.5 ng/mL; 100 nM

compound: CC(C)(C)NC(=O)[C@H]1CC[C@H]2[C@@H]3CC[C@H]4NC(=O)C=C[C@]4(C)[C@H]3CC[C@]12C [Finasteride] (max concentration tested 10000 nM)
unit_abbrev: %
percent inhibition of viability: -5.78

compound: c1ccc(Cn2c(-c3ccc(OC[C@H](C4CCNCC4)n4c(-c5ccccc5)nc5ccccc54)cc3)nc3ccccc32)cc1 [deltarasin] (max concentration tested 10000 nM)
unit_abbrev: %
percent inhibition of viability: -6.67

compound: Clc1ccc(Nc2nnc(Cc3ccncc3)c3ccccc23)cc1 [Vatalanib] (max concentration tested 10000 nM)
unit_abbrev: %
percent inhibition of viability: -1.96

compound: Nc1ccccc1NC(=O)c1ccc(CNc2nccc(-c3cccnc3)n2)cc1 [Mocetinostat] (max concentration tested 10000 nM)
unit_abbrev: %
percent inhibition of viability: -12.3

compound: O=C(CCCCCCC(=O)Nc1ccccc1)NO [Vorinostat] (max concentration tested 10000 nM)
unit_abbrev: %
percent inhibition of viability: 2.48

compound: CCC(C)(C)C(=O)O[C@H]1C[C@@H](C)C=C2C=C[C@H](C)[C@H](CC[C@@H]3C[C@@H](O)CC(=O)O3)[C@H]21 [Simvastatin] (max concentration tested 10000 nM)
unit_abbrev: %
percent inhibition of viability: -1.19

compound: CN(C)CCN1C(=O)c2cccc3cc(N)cc(c23)C1=O [Amonafide] (max concentration tested 10000 nM)
unit_abbrev: %
percent inhibition of viability: 5.46

compound: Cc1ccc(-n2nc(C(C)(C)C)cc2NC(=O)Nc2ccc(OCCN3CCOCC3)c3ccccc23)cc1 [Doramapimod] (max concentration tested 10000 nM)
unit_abbrev: %
percent inhibition of viability: -1.74

compound: CO[C@H]1C[C@@H]2CC[C@@H](C)[C@@](O)(O2)C(=O)C(=O)N2CCCC[C@H]2C(=O)O[C@H]([C@H](C)C[C@@H]2CC[C@@H](OCCO)[C@H](OC)C2)CC(=O)[C@H](C)/C=C(\C)[C@@H](O)[C@@H](OC)C(=O)[C@H](C)C[C@H](C)/C=C/C=C/C=C/1C [Everolimus] (max concentration tested 100 nM)
unit_abbrev: %
percent inhibition of viability: 0.46

* * *

- Tested on: NKL (IL-2 2.5 ng/mL)
- experimental_protocol: percent inhibition of viability; higher = more inhibition
- experimental_conditions: 72 h; 1000 nM
percent inhibition of viability under 20% gets Yes, anything at or over 20% gets No.

compound: Cc1ccc(C(=O)Nc2ccc(CN3CCN(C)CC3)c(C(F)(F)F)c2)cc1C#Cc1cnc2cccnn12 [Ponatinib] (max concentration tested 1000 nM)
discrete_label: No
//
compound: CCc1cnn2c(NCc3ccc[n+]([O-])c3)cc(N3CCCC[C@H]3CCO)nc12 [Dinaciclib] (max concentration tested 1000 nM)
discrete_label: No
//
compound: Clc1ccc(Nc2nnc(Cc3ccncc3)c3ccccc23)cc1 [Vatalanib] (max concentration tested 10000 nM)
discrete_label: Yes
//
compound: Cn1c(Nc2ccc(C(F)(F)F)cc2)nc2cc(Oc3ccnc(-c4ncc(C(F)(F)F)[nH]4)c3)ccc21 [RAF265] (max concentration tested 1000 nM)
discrete_label: No
//
compound: C=C(c1ccc(C(=O)O)cc1)c1cc2c(cc1C)C(C)(C)CCC2(C)C [Bexarotene] (max concentration tested 10000 nM)
discrete_label: No
//
compound: CC(C)n1cnc2c(NCCc3ccc(O)cc3)nc(-c3csc4ccccc34)nc21 [StemRegenin 1] (max concentration tested 10000 nM)
discrete_label: Yes
//
compound: c1ccc(Cn2c(-c3ccc(OC[C@H](C4CCNCC4)n4c(-c5ccccc5)nc5ccccc54)cc3)nc3ccccc32)cc1 [deltarasin] (max concentration tested 10000 nM)
discrete_label: Yes
//
compound: CC[C@H](CC#N)OC(=O)N[C@@H](C)c1cccc(NC(=O)Nc2ccc(-c3cnco3)c(OC)c2)c1 [AVN944] (max concentration tested 10000 nM)
discrete_label: No
//
compound: N#CC1(c2ccc(NC(=O)c3cccnc3NCc3ccncc3)cc2)CCCC1 [Apatinib] (max concentration tested 10000 nM)
discrete_label: Yes
//
compound: Cc1c(CN2CCN(C(=O)[C@H](C)O)CC2)sc2c(N3CCOCC3)nc(-c3cnc(N)nc3)nc12 [Apitolisib] (max concentration tested 10000 nM)
discrete_label: No
//
compound: CCC(C)(C)C(=O)O[C@H]1C[C@@H](C)C=C2C=C[C@H](C)[C@H](CC[C@@H]3C[C@@H](O)CC(=O)O3)[C@H]21 [Simvastatin] (max concentration tested 10000 nM)
discrete_label: Yes
